# experiment: Binding affinity to Pyrococcus horikoshii sodium-coupled aspartate transporter
Below, each entry is listed alongside its reported Kd.

[
  {
    "compound": "O=C(O)CCC(=O)O",
    "Kd": "1450 µM"
  },
  {
    "compound": "N[C@H](CC(=O)O)C(=O)O [D-ASPARTATE]",
    "Kd": "0.009 µM"
  },
  {
    "compound": "N[C@@H](CCC(=O)O)C(=O)O",
    "Kd": "122 µM"
  },
  {
    "compound": "N[C@@H](CS(=O)O)C(=O)O",
    "Kd": "0.02 µM"
  },
  {
    "compound": "N[C@@H](CO)C(=O)O",
    "Kd": "160 µM"
  },
  {
    "compound": "N[C@H](CCC(=O)O)C(=O)O [D-GLUTAMATE]",
    "Kd": "162 µM"
  }
]

* * *

# experiment: Binding affinity to Pyrococcus horikoshii sodium-coupled aspartate transporter by isothermal titration calorimetry in presence of NaCl

[
  {
    "compound": "N[C@@H](CC(=O)O)C(=O)O [ASPARTIC ACID]",
    "measurement-unit": "nM",
    "Kd": 94
  }
]

* * *

# target-under-test: Glutamate transporter homolog (Pyrococcus horikoshii (strain ATCC 700860 / DSM 12428 / JCM 9974 /NBRC 100139 / OT-3), UniProt O59010, D405N)
# Sequence (O59010 whole entry D405N): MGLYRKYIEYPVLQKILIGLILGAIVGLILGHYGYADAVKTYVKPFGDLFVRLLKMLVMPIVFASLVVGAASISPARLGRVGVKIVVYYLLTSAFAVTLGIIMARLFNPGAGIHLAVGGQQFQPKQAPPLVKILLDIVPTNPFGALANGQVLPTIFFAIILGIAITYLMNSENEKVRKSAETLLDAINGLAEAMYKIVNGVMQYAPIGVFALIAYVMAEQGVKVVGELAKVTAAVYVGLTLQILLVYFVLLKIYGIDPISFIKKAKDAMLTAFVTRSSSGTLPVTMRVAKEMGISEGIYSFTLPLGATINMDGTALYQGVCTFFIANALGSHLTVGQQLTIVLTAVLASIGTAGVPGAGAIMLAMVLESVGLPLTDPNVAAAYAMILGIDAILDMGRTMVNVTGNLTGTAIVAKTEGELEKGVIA
# experiment: Binding affinity to Pyrococcus horikoshii sodium-coupled aspartate transporter D405N mutant in presence of NaCl

[
  {
    "compound": "NC(C(=O)O)C(OCc1ccccc1)C(=O)O (racemic)",
    "Kd, nM": 100
  }
]
